# IC50 measurements, system: CDK2 (human) (UniProt P24941)

The following molecules have reported results that may help.
{"compoundStructureString": "COc1cc2cc(c1OCCN1CCCC1)COCC=CCOCc1cccc(c1)-c1ccnc(n1)N2", "obsValue": "1 to 5 µM"}
{"compoundStructureString": "C1=CCOCc2cc(ccc2OCCN2CCCC2)Nc2nccc(n2)-c2csc(c2)COC1", "obsValue": "> 5 µM"}
{"compoundStructureString": "CCN(CC)CCOc1ccc2cc1COCC=CCCOc1cc(ccc1OC)-c1ccnc(n1)N2", "obsValue": "> 5 µM"}
{"compoundStructureString": "O=C1CCC=CCOCc2cccc(c2)Nc2nccc(n2)-c2cccc(c2)N1", "obsValue": "1 to 5 µM"}
{"compoundStructureString": "CN1CC=CCCOc2cc(F)cc(c2)-c2ccnc(n2)Nc2cccc(c2)C1", "obsValue": "≤ 1 µM"}

Prompt: Fill in the recorded IC50 for this molecule, with CDK2 (human) (UniProt P24941) as test system: C1=CCOCc2cc(ccc2OCCN2CCCC2)Nc2nccc(n2)-c2cccc(c2)COC1
Completion: 1 to 5 µM

Prompt: Provide the documented IC50 with CDK2 (human) (UniProt P24941) as the system for CN1CCN(c2ccc3cc2COCC=CCOCc2cccc(c2)-c2ccnc(n2)N3)CC1
Completion: > 5 µM

Prompt: Item: C1=CCOCc2cc(ccc2N2CCOCC2)Nc2nccc(n2)-c2cccc(c2)COC1 Test system: CDK2 (human) (UniProt P24941) Read-out: IC50 Value: ?
Completion: > 5 µM

Prompt: // lookup IC50 | system=CDK2 (human) (UniProt P24941) | key= Fc1ccc2cc1COCC=CCOCc1cc(ccc1OCCN1CCCC1)Nc1nccc-2n1
Completion: 1 to 5 µM

----------
pIC50: −log10 of the molar value.
Entries below carry reported pIC50 on CDK2 (human) (UniProt P24941).

Some solved cases for reference:
{"compoundStructureString": "CN1CC=CCCOc2cccc(c2)-c2ccnc(n2)Nc2ccc(OCCN3CCCCC3)c(c2)C1", "testedOn": "CDK2 (human) (UniProt P24941)", "pIC50": "≥ 6.00"}
{"compoundStructureString": "C1=CCOCc2cc(ccc2OCCN2CCCC2)Nc2nccc(n2)C2=CC=C(COC1)O2", "testedOn": "CDK2 (human) (UniProt P24941)", "pIC50": "< 5.30"}
{"compoundStructureString": "CCN(CC)CCOc1ccc2cc1COCC=CCCOc1cccc(c1)-c1ccnc(n1)N2", "testedOn": "CDK2 (human) (UniProt P24941)", "pIC50": "< 5.30"}

Consider the additional molecule presented here.
Prompt: Could you share what pIC50 was measured for C1=CCN(C2CC2)Cc2cccc(c2)Nc2nccc(n2)-c2cccc(c2)OCC1 , tested on CDK2 (human) (UniProt P24941)?
Completion: ≥ 6.00
